Some compounds, each annotated with its measured IC30.
# Test system: NCI-H460
# test.name: Anticancer activity against human NCI-H460 cells after 72 hrs by SRB assay
# Assay type: functional, cell-based
# details: NCI-H460, 72 h
Provide only the numeric value, understood in µM.

smiles.notation	test.system	endpoint.value
CC1=C[C@@H]2[C@H](C1=O)[C@H](O)C(C)=C[C@H]1[C@@H]3C(C)(C)[C@]3(OC(=O)C(C)C)[C@H](OC(=O)c3ccccc3)[C@@H](C)[C@]21O	NCI-H460	7
C=C1[C@@H](OC(=O)C(C)C)[C@@H](OC(=O)c2ccccc2)[C@@H](OC(C)=O)C(C)(C)/C=C/[C@@H](C)C(=O)[C@@]2(O)C[C@H](C)[C@H](OC(=O)CC)[C@@H]2[C@H]1OC(C)=O	NCI-H460	8.3
C=C1[C@@H](OC(C)=O)[C@@H](OC(=O)c2ccccc2)[C@@H](OC(C)=O)C(C)(C)/C=C/[C@@H](C)C(=O)[C@@]2(O)C[C@H](C)[C@H](OC(=O)C(C)C)[C@@H]2[C@H]1OC(C)=O	NCI-H460	11.7
C=C1[C@@H](OC(=O)C(C)C)[C@@H](OC(C)=O)[C@@H](OC(=O)c2cccnc2)C(C)(C)/C=C/[C@@H](C)C(=O)[C@@]2(O)C[C@H](C)[C@H](OC(=O)C(C)C)[C@@H]2[C@H]1OC(C)=O	NCI-H460	6.1

Challenge: Identify measured IC30 corresponding to C=C1[C@@H](OC(=O)C(C)C)[C@@H](OC(C)=O)[C@@H](OC(=O)c2cccnc2)C(C)(C)/C=C/[C@@H](C)C(=O)[C@@]2(O)C[C@H](C)[C@H](OC(=O)CC)[C@@H]2[C@H]1OC(C)=O
Response given: 31

* * *

Some compounds, each annotated with its measured IC50.
# Tested on: NCI-H460
# test.name: Anticancer activity against multidrug resistant human NCI-H460 cells after 72 hrs by SRB assay
# Assay type: functional, cell-based
# details: NCI-H460, 72 h
Provide only the numeric value, understood in µM.

smiles.notation	value.units	IC50
C=C1[C@@H](OC(=O)C(C)C)[C@@H](OC(=O)c2ccccc2)[C@@H](OC(C)=O)C(C)(C)/C=C/[C@@H](C)C(=O)[C@@]2(O)C[C@H](C)[C@H](OC(=O)CC)[C@@H]2[C@H]1OC(C)=O	µM	49.8

Challenge: // fetch IC50; item: CC(=O)OC/C1=C/[C@H]2[C@@H](OC(C)=O)[C@](C)(OC(C)=O)C[C@]2(OC(C)=O)C(=O)[C@H](C)/C=C/C(C)(C)[C@H](OC(=O)c2cccnc2)[C@H](OC(C)=O)[C@@H]1OC(=O)C(C)C ; system: NCI-H460
Response given: 90.8

Challenge: // fetch IC50; item: CC1=C[C@@H]2[C@H](C1=O)[C@H](O)C(C)=C[C@H]1[C@@H]3C(C)(C)[C@]3(OC(=O)C(C)C)[C@H](OC(=O)c3ccccc3)[C@@H](C)[C@]21O ; system: NCI-H460
Response given: 26

Challenge: // fetch IC50; item: CC(=O)O[C@H]1C(=O)[C@@]2(C)[C@H]([C@H](OC(=O)c3ccccc3)[C@]3(O)C[C@H](OC(=O)[C@H](O)[C@@H](NC(=O)c4ccccc4)c4ccccc4)C(C)=C1C3(C)C)[C@]1(OC(C)=O)CO[C@@H]1C[C@@H]2O ; system: NCI-H460
Response given: 2.08
